target: human TOR (Homo sapiens); construct: FLAG; assay: mTOR enzyme assay (DELFIA, His6-S6K substrate); type: biochemical; conditions: read-out: mTOR Kinase Avg. IC50
measuredQuantity: IC50 (nM)
Lab book: enter the figure in nM, no units written.

Below, 4 compounds whose answers are already recorded.
| compound | systemTested | measuredQuantity | endpointResult |
| --- | --- | --- | --- |
| COc1ccc2c(c1)c(/C=C1\Oc3cc(O)cc(Cl)c3C1=O)c(C)n2CCCN(C)C | human TOR (Homo sapiens) | IC50 | 7500 |
| COc1ccc2[nH]c(-c3c(C)nn(C)c3C)c(/C=C3\Oc4ccc(NC(=O)Nc5ccc(N(C)C(=O)CCN(C)C)cc5)cc4C3=O)c2c1 | human TOR (Homo sapiens) | IC50 | 5 |
| CC(C)Oc1ccc(-c2cccc3c2c(/C=C2\Oc4cc(O)cc(O)c4C2=O)cn3C)cc1 | human TOR (Homo sapiens) | IC50 | 180 |
| COc1cc(F)c2[nH]c(-c3c(C)nn(C)c3C)c(/C=C3\Oc4ccc(NC(=O)Nc5ccc(C(=O)N6CCC(N(C)C)CC6)cc5)cc4C3=O)c2c1 | human TOR (Homo sapiens) | IC50 | 1 |

Fill in: IC50 of COc1ccc2c(c1)c(C=C1Oc3c(ccc(O)c3O)C1=O)c(C)n2C is ___
1590

One more compound: CNC(=O)Nc1ccc2c(c1)C(=O)/C(=C/c1c(-c3c(C)nn(C)c3C)n(CCN(C)C)c3ccc(OC)cc13)O2
60

One more compound: COc1ccc2c(c(C=C3Oc4cc(O)cc(O)c4C3=O)cn2C)c1C
1600

One more compound: COc1ccc2c(c1)c(C=C1Oc3cc(O)cc(O)c3C1=O)c(C)n2CCCN1CCN(CCN2CCOCC2)CC1
140

One more compound: COc1ccc2c(c1)c(/C=C1\Oc3cc(O)ccc3C1=O)c(C)n2CCN1CCCC1C (stereo not drawn)
2200

One more compound: CCn1c(C)c(/C=C2\Oc3ccc(NC(=O)Nc4ccc(C(=O)C5CCN(C)CC5)cc4)cc3C2=O)c2cc(OC)ccc21
783

One more compound: Cn1cc(/C=C2\Oc3cc(O)cc(O)c3C2=O)c2c(-c3cccnc3)cccc21
28

One more compound: COc1ccc2c(c1)c(/C=C1\Oc3cc(O)ccc3C1=O)c(C1CC1)n2CCCN(C)C
635

One more compound: COc1ccc(-c2cccc3c2c(/C=C2\Oc4cc(O)cc(O)c4C2=O)cn3C)cn1
84.5

----------
molecular target: PI3K-delta (Homo sapiens); assay: PI3K-delta fluorescence polarization assay; type: biochemical; details: read-out: PI3Kδ Avg. IC50
Sequence (O00329 whole entry, species assumed): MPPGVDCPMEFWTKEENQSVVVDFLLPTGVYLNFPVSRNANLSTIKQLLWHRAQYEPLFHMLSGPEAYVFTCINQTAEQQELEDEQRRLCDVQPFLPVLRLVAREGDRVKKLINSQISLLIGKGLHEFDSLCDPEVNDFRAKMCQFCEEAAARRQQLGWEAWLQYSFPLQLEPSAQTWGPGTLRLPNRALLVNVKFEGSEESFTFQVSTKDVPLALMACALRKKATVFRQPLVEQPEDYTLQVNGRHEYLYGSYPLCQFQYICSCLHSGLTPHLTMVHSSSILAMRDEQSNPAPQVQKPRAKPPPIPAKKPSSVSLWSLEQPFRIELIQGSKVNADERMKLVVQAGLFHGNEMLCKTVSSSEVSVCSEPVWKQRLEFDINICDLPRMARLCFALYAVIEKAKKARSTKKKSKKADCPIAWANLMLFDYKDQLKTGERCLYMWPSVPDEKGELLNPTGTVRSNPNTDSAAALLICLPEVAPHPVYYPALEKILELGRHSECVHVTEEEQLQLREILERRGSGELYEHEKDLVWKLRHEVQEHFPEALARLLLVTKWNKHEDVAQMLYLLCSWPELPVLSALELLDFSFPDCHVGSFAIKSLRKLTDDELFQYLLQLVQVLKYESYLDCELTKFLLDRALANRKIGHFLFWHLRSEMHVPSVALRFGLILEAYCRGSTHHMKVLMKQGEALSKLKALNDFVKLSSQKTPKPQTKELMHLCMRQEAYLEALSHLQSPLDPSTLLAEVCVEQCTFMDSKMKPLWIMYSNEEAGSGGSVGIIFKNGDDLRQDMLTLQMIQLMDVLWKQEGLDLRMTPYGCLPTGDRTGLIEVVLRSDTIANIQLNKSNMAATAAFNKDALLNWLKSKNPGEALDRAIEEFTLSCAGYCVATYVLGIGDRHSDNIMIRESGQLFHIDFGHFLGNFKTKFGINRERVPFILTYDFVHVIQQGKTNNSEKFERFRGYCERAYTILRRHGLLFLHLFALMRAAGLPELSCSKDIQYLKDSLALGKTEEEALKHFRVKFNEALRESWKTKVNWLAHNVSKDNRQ
Sequence (P27986 whole entry partner, species assumed): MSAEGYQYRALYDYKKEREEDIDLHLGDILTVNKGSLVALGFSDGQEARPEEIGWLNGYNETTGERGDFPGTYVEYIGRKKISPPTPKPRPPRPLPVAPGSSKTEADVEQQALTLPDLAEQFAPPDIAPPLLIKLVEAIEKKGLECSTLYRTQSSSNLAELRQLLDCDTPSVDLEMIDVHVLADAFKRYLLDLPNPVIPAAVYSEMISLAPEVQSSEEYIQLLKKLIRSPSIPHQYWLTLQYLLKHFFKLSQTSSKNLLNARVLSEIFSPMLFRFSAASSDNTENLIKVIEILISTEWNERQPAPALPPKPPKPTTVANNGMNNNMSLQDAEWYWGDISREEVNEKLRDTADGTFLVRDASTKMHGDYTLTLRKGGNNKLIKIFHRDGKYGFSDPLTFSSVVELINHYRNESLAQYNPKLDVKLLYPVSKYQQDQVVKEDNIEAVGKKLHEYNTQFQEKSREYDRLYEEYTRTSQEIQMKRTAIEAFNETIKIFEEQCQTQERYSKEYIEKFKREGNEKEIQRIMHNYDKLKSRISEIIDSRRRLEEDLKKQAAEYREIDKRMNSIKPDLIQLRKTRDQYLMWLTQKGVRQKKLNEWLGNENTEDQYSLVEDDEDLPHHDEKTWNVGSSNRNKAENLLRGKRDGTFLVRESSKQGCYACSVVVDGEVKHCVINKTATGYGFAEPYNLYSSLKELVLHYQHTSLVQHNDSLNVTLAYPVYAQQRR
Reported IC50 is given for each of the following molecules.
Lab book: enter the figure in nM, no units written.

Below, 4 molecules whose answers are already recorded.
| molecule | IC50 (nM) |
| --- | --- |
| COc1ccc2[nH]c(CN(C)C)c(/C=C3\Oc4cc(O)cc(O)c4C3=O)c2c1 [Example 353] | 2 |
| COc1ccc2c(c1)c(/C=C1\Oc3cc(O)cc(O)c3C1=O)cn2CCN1CCC(O)CC1 [Example 319] | 3.5 |
| COc1ccc2c(c1)c(/C=C1\Oc3cc(O)cc(O)c3C1=O)cn2CCCN(C)C [Example 323] | 4 |
| COc1ccc2c(c1)c(C=C1Oc3cc(O)cc(O)c3C1=O)c(C)n2CCCCN1CCN(CCN2CCOCC2)CC1 [Example 100] | 3 |

Fill in: IC50 of CCn1c(C)c(/C=C2\Oc3ccc(NC(=O)Nc4ccc(C(=O)N5CCN(C)CC5)cc4)cc3C2=O)c2cc(OC)ccc21 [Compound 620] is ___
2

One more molecule: COc1ccc2c(c1)c(/C=C1\Oc3cc(O)cc(O)c3C1=O)c(C(=O)N(C)C)n2CCCN(C)C [Example 343]
2.5

One more molecule: COc1ccc2[nH]c(-c3ccccc3)c(C=C3Oc4cc(O)cc(O)c4C3=O)c2c1 [Example 70]
5.3
